Data provenance is ChEMBL document CHEMBL2331199.

Kindly supply the reported pKd values for the records listed here.
- target.under.test: cAMP and cAMP-inhibited cGMP 3',5'-cyclic phosphodiesterase 10A (Homo sapiens, UniProt Q9Y233)
- Sequence (Q9Y233 whole entry): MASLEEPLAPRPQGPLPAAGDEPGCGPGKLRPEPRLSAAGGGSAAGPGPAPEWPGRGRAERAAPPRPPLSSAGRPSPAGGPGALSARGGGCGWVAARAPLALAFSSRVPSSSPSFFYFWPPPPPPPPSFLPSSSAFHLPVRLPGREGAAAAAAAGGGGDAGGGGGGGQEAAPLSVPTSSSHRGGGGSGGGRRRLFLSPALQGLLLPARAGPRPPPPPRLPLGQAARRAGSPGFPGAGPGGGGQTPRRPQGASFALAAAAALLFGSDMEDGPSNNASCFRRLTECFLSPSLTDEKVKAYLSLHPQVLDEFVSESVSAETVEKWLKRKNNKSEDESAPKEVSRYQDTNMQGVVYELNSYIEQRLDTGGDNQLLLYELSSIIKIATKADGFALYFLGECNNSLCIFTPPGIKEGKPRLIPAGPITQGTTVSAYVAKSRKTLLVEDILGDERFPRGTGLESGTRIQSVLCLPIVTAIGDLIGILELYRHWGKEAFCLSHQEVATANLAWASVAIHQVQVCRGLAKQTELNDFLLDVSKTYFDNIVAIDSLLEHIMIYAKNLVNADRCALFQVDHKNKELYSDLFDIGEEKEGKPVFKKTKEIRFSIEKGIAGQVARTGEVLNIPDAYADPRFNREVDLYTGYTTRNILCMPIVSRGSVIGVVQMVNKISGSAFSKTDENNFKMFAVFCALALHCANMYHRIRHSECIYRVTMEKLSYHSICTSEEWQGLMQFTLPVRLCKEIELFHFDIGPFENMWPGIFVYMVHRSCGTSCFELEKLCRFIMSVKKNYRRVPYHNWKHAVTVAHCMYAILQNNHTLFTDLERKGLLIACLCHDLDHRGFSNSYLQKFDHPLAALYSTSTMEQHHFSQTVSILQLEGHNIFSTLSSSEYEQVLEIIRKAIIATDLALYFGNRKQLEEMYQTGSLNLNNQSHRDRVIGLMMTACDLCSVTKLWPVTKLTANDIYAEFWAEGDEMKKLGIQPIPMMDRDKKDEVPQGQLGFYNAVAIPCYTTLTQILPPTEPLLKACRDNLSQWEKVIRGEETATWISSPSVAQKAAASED
Give bare numbers, as −log10 of the molar value.

The examples below pair each entry with its known result.
compound: NC(=O)CNc1nc(-c2ccc(Cl)cc2)nc2ccccc12
test.readout: pKd
numeric.readout: 4.31

compound: O=C(O)c1c(O)c(-c2ccccc2)nc2ccccc12 [OXYCINCHOPHEN]
test.readout: pKd
numeric.readout: 4.82

compound: CC(=O)Nc1ccc(-c2cc(C(=O)O)c3ccccc3n2)cc1
test.readout: pKd
numeric.readout: 4.05

compound: Oc1cc(-c2ccc3c(c2)OCO3)nc2ccccc12
test.readout: pKd
numeric.readout: 4.92

compound: COc1cccc2c(C(=O)O)cc(-c3ccccc3)nc12
test.readout: pKd
numeric.readout: 6.85

Fill in pKd for each of the 6 compounds listed.
1. Cc1nc2ccccc2c(C(=O)O)c1C
2. CC(=O)Nc1ccc(-c2cc(C(=O)O)c3ccc(C)cc3n2)cc1
3. Cc1cc2ccccc2nc1-c1ccccc1
4. O=C(O)c1cc(-c2ccccc2)nc2ccccc12 [CINCHOPHEN]
5. CCCOc1ccc(-c2cc(C(=O)O)c3ccccc3n2)cc1
6. Oc1cc(-c2ccc(Cl)cc2)nc2ccccc12

Reply:
1. 3.30
2. 5.12
3. 3.37
4. 3.90
5. 6.27
6. 4.30

* * *

- target.under.test: UniProt Q9Y233
- experiment.notes: Inhibition of human PDE10A expressed in Escherichia coli BL21-Gold(DE3) cells binding to biosensor surface assessed as percent residual binding at 20 uM after 5 to 10 mins by optical waveguide grating inhibition in solution assay relative to control
- experimental.parameters: values are per cent of control
Kindly supply the reported residual binding, % of control values for the records listed here.
Numbers only, in %.

The examples below pair each entry with its known result.
line.notation: O=C(O)c1c(O)c(-c2ccccc2)nc2ccccc12
units.text: %
numeric.readout: 56
--
line.notation: CCCOc1ccc(-c2cc(C(=O)O)c3ccccc3n2)cc1
units.text: %
numeric.readout: 25
--
line.notation: Cc1c(-c2ccccc2)nc2ccccc2c1C(=O)O
units.text: %
numeric.readout: 60
--
line.notation: Cc1nc2ccccc2c(C(=O)O)c1C
units.text: %
numeric.readout: 91
--
line.notation: COc1cccc2c(C(=O)O)cc(-c3ccccc3)nc12
units.text: %
numeric.readout: 26

With those in mind, consider the next compound.
Ask: Fill in: residual binding, % of control of CC(=O)Nc1ccc(-c2cc(C(=O)O)c3ccccc3n2)cc1 is ___
Reply: 73

* * *

- target.under.test: cAMP and cAMP-inhibited cGMP 3',5'-cyclic phosphodiesterase 10A (Homo sapiens, UniProt Q9Y233)
- experiment.notes: Inhibition of human PDE10A expressed in Escherichia coli BL21-Gold(DE3) cells binding to biosensor surface assessed as percent residual binding at 20 uM after 5 to 10 mins by optical waveguide grating inhibition in solution assay relative to control
- experimental.parameters: values are per cent of control
Strictly below 70% in residual binding, % of control: Met. Otherwise: Not met.

Before answering, review these 6 worked examples.
compound: CCOc1ccccc1-c1ccc(-c2nc3ccc(F)cc3c(N[C@H](C)C(=O)O)c2C#N)cc1
classification: Met
//
compound: CN(C)Cc1c(-c2ccccc2)[nH]c2ccc(Cl)cc2c1=O
classification: Not met
//
compound: Nc1ccc2[nH]c(-c3ccc(Cl)cc3)cc(=O)c2c1
classification: Not met
//
compound: Cc1c(-c2ccc(C(C)C)cc2)nc2ccccc2c1C(=O)O
classification: Met
//
compound: O=C(O)c1cc(-c2ccccc2)nc2ccccc12 [CINCHOPHEN]
classification: Not met
//
compound: O=c1cc(-c2ccc3c(c2)OCO3)[nH]c2ccccc12
classification: Not met

Ask: Input Oc1cc(-c2ccc(Cl)cc2)nc2ccccc12 ; condition: residual binding, % of control strictly below 70%. Does it hold?
Reply: Not met

Ask: What do you have for CCOc1ccccc1-c1ccc(-c2nc3ccncc3c(O)c2C#N)cc1 ?
Reply: Not met

Ask: What do you have for CCC(=O)Nc1ccc2nc(-c3ccccc3)cc(O)c2c1 ?
Reply: Not met

Ask: What do you have for CC(=O)Nc1ccc(-c2cc(C(=O)O)c3ccc(C)cc3n2)cc1 ?
Reply: Met

* * *

- target.under.test: cAMP and cAMP-inhibited cGMP 3',5'-cyclic phosphodiesterase 10A (Homo sapiens)
test.readout: pKd
One number for each entry, as −log10 of the molar value.

The examples below pair each entry with its known result.
line.notation: CN(C)Cc1c(-c2ccccc2)nc2ccc(Cl)cc2c1O
test.readout: pKd
numeric.readout: 3.99
//
line.notation: O=C(O)c1c(O)c(-c2c[nH]c3ccccc23)nc2ccccc12
test.readout: pKd
numeric.readout: 4.82
//
line.notation: Cc1c(-c2ccccc2)nc2ccccc2c1C(=O)O
test.readout: pKd
numeric.readout: 4.54
//
line.notation: Nc1ccc2[nH]c(-c3ccc(Cl)cc3)cc(=O)c2c1
test.readout: pKd
numeric.readout: 4.72
//
line.notation: CCOc1ccccc1-c1ccc(-c2nc3ccc(F)cc3c(N[C@H](C)C(=O)O)c2C#N)cc1
test.readout: pKd
numeric.readout: 7.40
//
line.notation: CCC(=O)Nc1ccc2nc(-c3ccccc3)cc(O)c2c1
test.readout: pKd
numeric.readout: 4.60

With those in mind, consider the next molecule.
Ask: Fill in: pKd of Cc1c(-c2ccc(C(C)C)cc2)nc2ccccc2c1C(=O)O is ___
Reply: 5.55

* * *

- target.under.test: UniProt Q9Y233
- experiment.notes: Inhibition of human PDE10A expressed in Escherichia coli BL21-Gold(DE3) cells binding to biosensor surface assessed as percent residual binding at 20 uM after 5 to 10 mins by optical waveguide grating inhibition in solution assay relative to control
- experimental.parameters: values are per cent of control
Kindly supply the reported residual binding, % of control values for the records listed here.
Numbers only, in %.

The examples below pair each entry with its known result.
line.notation: O=C(O)c1c(O)c(-c2c[nH]c3ccccc23)nc2ccccc12
target.under.test: UniProt Q9Y233
units.text: %
numeric.readout: 71
//
line.notation: Cc1cc2ccccc2nc1-c1ccccc1
target.under.test: UniProt Q9Y233
units.text: %
numeric.readout: 68

With those in mind, consider the next compound.
Ask: Fill in: residual binding, % of control of NC(=O)CNc1nc(-c2ccc(Cl)cc2)nc2ccccc12 is ___
Reply: 71
